The origin of these recorded values is the supplement of paper PMC5722580.

Each record here notes measured drug sensitivity score.
system: YT; test: drug sensitivity score (viability inhibition); higher = more sensitive; conditions: 72 h; IL2 2.5 ng/ml
Your reply should be a number followed by the unit it is expressed in.

# count of solved cases: 6
{"columns": ["inputSmiles", "valueKind", "assayResult"],
 "data": [
  ["CO[C@H]1C[C@@H]2CC[C@@H](C)[C@@](O)(O2)C(=O)C(=O)N2CCCC[C@H]2C(=O)O[C@H]([C@H](C)C[C@@H]2CC[C@@H](OCCO)[C@H](OC)C2)CC(=O)[C@H](C)/C=C(\\C)[C@@H](O)[C@@H](OC)C(=O)[C@H](C)C[C@H](C)/C=C/C=C/C=C/1C", "drug sensitivity score", "11.8 DSS"],
  ["N#CC[C@H](C1CCCC1)n1cc(-c2ncnc3[nH]ccc23)cn1", "drug sensitivity score", "15.8 DSS"],
  ["COc1cc(Nc2c(C#N)cnc3cc(OCCCN4CCN(C)CC4)c(OC)cc23)c(Cl)cc1Cl", "drug sensitivity score", "5.38 DSS"],
  ["C[C@]12O[C@H](C[C@]1(O)CO)n1c3ccccc3c3c4c(c5c6ccccc6n2c5c31)CNC4=O", "drug sensitivity score", "13.5 DSS"],
  ["CC(=O)OC[C@H]1O[C@@H]([S-])[C@H](OC(C)=O)[C@@H](OC(C)=O)[C@@H]1OC(C)=O.CCP(CC)CC.[Au+]", "drug sensitivity score", "8.63 DSS"],
  ["CO[C@@H](C(=O)N1Cc2[nH]nc(NC(=O)c3ccc(N4CCN(C)CC4)cc3)c2C1)c1ccccc1", "drug sensitivity score", "6.55 DSS"]
]}

[ask] Return the recorded drug sensitivity score value; entry: COc1cc(Nc2ncc(F)c(Nc3ccc4c(n3)NC(=O)C(C)(C)O4)n2)cc(OC)c1OC
[reply] 2.87 DSS

[ask] Please give measured drug sensitivity score of the following entry: CN1CC[C@H](c2c(O)cc(O)c3c(=O)cc(-c4ccccc4Cl)oc23)[C@H](O)C1
[reply] 23 DSS
